System: HepG2
experiment: GSK_TCMDC: Percent inhibition of human HepG2 cell line. Test compounds present at 10uM.
Type: functional
experimental_endpoint: Inhibition (%)
Kindly answer with a numeric value in %, unit omitted.

### Prompt Please state recorded Inhibition (tested on HepG2) of CC(C)N1CCN(c2ccc(OCCCCN3CCN(c4cccc(Cl)c4Cl)CC3)c(C(F)(F)F)c2)CC1.Cl
### Response 64

### Prompt Ok, now CN1CCN(c2ccnc3ccc(NC(=O)Nc4ccc(-c5ccncc5)c(C(F)(F)F)c4)cc23)CC1
### Response 12

### Prompt Ok, now C[C@H](Cc1ccc(Oc2ccc(C[C@@H](C)NC[C@H](O)c3cccc(Cl)c3)cc2)cc1)NC[C@H](O)c1cccc(Cl)c1.Cl
### Response 99

Next molecule, please.
### Prompt Please state recorded Inhibition (tested on HepG2) of COc1ccc2[nH]c(/C=C/c3cccc4ccc(C)nc34)nc2c1
### Response 25

----------
Collected Inhibition values appear next to each entry.
System: Plasmodium falciparum
experiment: GSK_TCMDC: Inhibition of Plasmodium falciparum 3D7 in whole red blood cells, using parasite LDH activity as an index of growth. Test compounds present at 2uM
Assay type: functional
Kindly answer with a numeric value in %, unit omitted.

### Prompt What value of Inhibition has been reported for the following molecule? Cc1[nH]c(C)c(-c2ccc(Oc3ccc(O)cc3)cc2)c(=O)c1Cl
### Response 91

### Prompt Ok, now CCCOc1cc(O)c(-c2[nH]nc(C)c2Oc2ccccc2)cc1CC
### Response 91

### Prompt Ok, now CCC(CC)n1cc2c(ccc3nc(N)nc(N)c32)n1
### Response 91

### Prompt Ok, now CCC(C)c1ccc(-n2c(Nc3ccccc3)nc3cc(S(N)(=O)=O)ccc32)cc1 (configuration not stated)
### Response 88

### Prompt Ok, now CN1CCCN(Cc2ccc(-c3cccc(NC(=O)c4ccc(F)cc4)c3)cc2)CC1.O=C(O)C(F)(F)F
### Response 89

***
### Prompt What value of Inhibition has been reported for the following molecule? CC(C)Cn1cc(C2CCN(CCN3CCC(CNC(=O)c4ccc(NC(=O)c5cc(Cl)cc(Cl)c5)cc4)CC3)CC2)c2ccccc21
### Response 91

### Prompt Ok, now CCCN1CCN(CCNc2c3ccccc3nc3ccccc23)CC1
### Response 88

----------
System: HepG2
experiment: GSK_TCMDC: Percent inhibition of human HepG2 cell line. Test compounds present at 10uM.
Assay type: functional
Response key: Fulfilled means Inhibition >= 20%; Not fulfilled means Inhibition < 20%.

As a guide, the following entries are already answered.
### Prompt Evaluate CC(C)(C)C(Cn1ccnc1)NCc1c[nH]nc1-c1ccc(-c2ccccc2)cc1 (stereo not drawn) : Inhibition at minimum 20%?
### Response Not fulfilled

### Prompt Ok, now Cc1noc(C)c1-c1ccc2c(Nc3cccc4c3-c3ccccc3C4=O)c(C(=O)NCc3ccccc3I)cnc2c1
### Response Fulfilled

### Prompt Ok, now O=C(NCCCCN1CCC(c2c[nH]c3ccccc23)CC1)c1ccc(-c2ccc(C(F)(F)F)cc2)cc1
### Response Fulfilled

### Prompt Ok, now Cc1cc(=NN=Cc2ccc(F)cc2)c2ccc(C(F)(F)F)cc2[nH]1
### Response Not fulfilled

### Prompt Ok, now CC(=O)Oc1c(C2CCN(CCCCNC(=O)c3ccc(NC(=O)c4ccc(Cl)cc4)cc3)CC2)ccc2c1CCCC2
### Response Fulfilled

### Prompt Ok, now O=C(Nc1ccc(-c2nc3ccccc3[nH]2)cc1)C1CCCN(CC2CC2)C1 (stereo not drawn)
### Response Not fulfilled

### Prompt Ok, now COc1ccc(CNCc2cccc(-c3ccc(-c4nc5cccc(C)c5[nH]4)s3)c2)cc1.O=C(O)C(F)(F)F
### Response Fulfilled

***
### Prompt Evaluate CC(=O)Nc1ccc(CN(Cc2ccc(C)cc2)Cc2cccc(Oc3ccccc3)c2)cc1 : Inhibition at minimum 20%?
### Response Fulfilled
